# system.under.test: α-amylase from porcine pancreas (Sus scrofa)
# Construct: A saline suspension of α-amylase from porcine pancreas; purchased Sigma Aldrich (Steinheim, Germany) Lot #SLBN9170V (catalogue number not given); host or cells: porcine pancreas (tissue-derived)
# assay.protocol: α-amylase enzyme activity assay, GalG2CNP conversion, UV/Vis detection of CNP at 405 nm
# Type: biochemical
# conditions.used: (i) global fit, mixed inhibition Equation (4); read-out: Kic
value.type: Ki (µM)
Could you give me the number in µM? Just the number is fine.

Problem: # lookup: Ki of OC[C@H]1O[C@@H](Oc2cc3c(O)cc(O)cc3[o+]c2-c2ccc(O)cc2)[C@H](O)[C@@H](O)[C@@H]1O [Plg-glc, pelargonidin-3-glucoside]
Solution: 57

Problem: # lookup: Ki of OC[C@H]1O[C@@H](Oc2cc3c(O)cc(O)cc3[o+]c2-c2ccc(O)c(O)c2)[C@H](O)[C@@H](O)[C@@H]1O [Cyd-glc, cyanidin-3-glucoside]
Solution: 81

Problem: # lookup: Ki of OC[C@H]1O[C@@H](Oc2cc3c(O)cc(O)cc3[o+]c2-c2cc(O)c(O)c(O)c2)[C@H](O)[C@@H](O)[C@@H]1O [Dpd-glc, delphinidin-3-glucoside]
Solution: 62

Problem: # lookup: Ki of COc1cc(-c2[o+]c3cc(O)cc(O)c3cc2O[C@@H]2O[C@H](CO)[C@@H](O)[C@H](O)[C@H]2O)ccc1O [Peo-glc, peonidin-3-glucoside]
Solution: 109

---

Could you please report measured pIC50 for the items listed next?
# system.under.test: α-amylase from porcine pancreas (Sus scrofa, UniProt P00690)
# Construct: A saline suspension of α-amylase from porcine pancreas; purchased Sigma Aldrich (Steinheim, Germany) Lot #SLBN9170V (catalogue number not given); host or cells: porcine pancreas (tissue-derived)
# Sequence (P00690 16-511): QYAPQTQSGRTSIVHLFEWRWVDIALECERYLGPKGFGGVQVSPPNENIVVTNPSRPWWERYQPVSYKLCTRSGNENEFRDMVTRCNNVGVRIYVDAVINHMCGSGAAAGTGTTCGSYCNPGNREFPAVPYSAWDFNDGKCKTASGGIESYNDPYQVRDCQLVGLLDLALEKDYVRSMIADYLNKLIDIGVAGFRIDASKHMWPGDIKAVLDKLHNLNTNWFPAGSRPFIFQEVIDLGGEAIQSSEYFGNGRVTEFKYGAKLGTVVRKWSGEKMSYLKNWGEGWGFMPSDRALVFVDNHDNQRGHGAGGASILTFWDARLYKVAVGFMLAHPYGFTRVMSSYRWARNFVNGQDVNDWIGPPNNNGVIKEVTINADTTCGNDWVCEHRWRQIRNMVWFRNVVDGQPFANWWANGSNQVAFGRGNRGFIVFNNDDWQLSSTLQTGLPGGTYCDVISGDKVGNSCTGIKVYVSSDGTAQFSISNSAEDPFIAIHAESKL
# assay.protocol: α-amylase enzyme activity assay, GalG2CNP conversion, UV/Vis detection of CNP at 405 nm
# Assay type: biochemical
# conditions.used: (i) Kic and Kiu by global fit; [S] 10^3 µM; read-out: IC50 (Cheng−Prussoff, Equation (9))
Friendly reminder that pIC50 comes from taking -log10 of the concentration in mol/L.

Problem: # lookup: pIC50 of OC[C@H]1O[C@@H](Oc2cc3c(O)cc(O)cc3[o+]c2-c2cc(O)c(O)c(O)c2)[C@H](O)[C@@H](O)[C@@H]1O [Dpd-glc, delphinidin-3-glucoside]
Solution: 3.87

Problem: # lookup: pIC50 of OC[C@H]1O[C@@H](Oc2cc3c(O)cc(O)cc3[o+]c2-c2ccc(O)c(O)c2)[C@H](O)[C@@H](O)[C@@H]1O [Cyd-glc, cyanidin-3-glucoside]
Solution: 3.83

Problem: # lookup: pIC50 of OC[C@H]1O[C@@H](Oc2cc3c(O)cc(O)cc3[o+]c2-c2ccc(O)cc2)[C@H](O)[C@@H](O)[C@@H]1O [Plg-glc, pelargonidin-3-glucoside]
Solution: 3.93

Problem: # lookup: pIC50 of COc1cc(-c2[o+]c3cc(O)cc(O)c3cc2O[C@@H]2O[C@H](CO)[C@@H](O)[C@H](O)[C@H]2O)ccc1O [Peo-glc, peonidin-3-glucoside]
Solution: 3.68

---

Could you please report measured vmaxapp for the items listed next?
# system.under.test: α-amylase from porcine pancreas (Sus scrofa, UniProt P00690)
# Construct: A saline suspension of α-amylase from porcine pancreas; purchased Sigma Aldrich (Steinheim, Germany) Lot #SLBN9170V (catalogue number not given); host or cells: porcine pancreas (tissue-derived)
# assay.protocol: α-amylase enzyme activity assay, GalG2CNP conversion, UV/Vis detection of CNP at 405 nm
# Assay type: biochemical
# conditions.used: Michaelis Menten fit; inhibitor c 25 µM

Problem: # lookup: vmaxapp of COc1cc(-c2[o+]c3cc(O)cc(O)c3cc2O[C@@H]2O[C@H](CO)[C@@H](O)[C@H](O)[C@H]2O)ccc1O [Peo-glc, peonidin-3-glucoside]
Solution: 0,74 ± 0,14 µM/min

Problem: # lookup: vmaxapp of OC[C@H]1O[C@@H](Oc2cc3c(O)cc(O)cc3[o+]c2-c2ccc(O)c(O)c2)[C@H](O)[C@@H](O)[C@@H]1O [Cyd-glc, cyanidin-3-glucoside]
Solution: 0,74 ± 0,26 µM/min

Problem: # lookup: vmaxapp of OC[C@H]1O[C@@H](Oc2cc3c(O)cc(O)cc3[o+]c2-c2cc(O)c(O)c(O)c2)[C@H](O)[C@@H](O)[C@@H]1O [Dpd-glc, delphinidin-3-glucoside]
Solution: 0,79 ± 0,09 µM/min

Problem: # lookup: vmaxapp of OC[C@H]1O[C@@H](Oc2cc3c(O)cc(O)cc3[o+]c2-c2ccc(O)cc2)[C@H](O)[C@@H](O)[C@@H]1O [Plg-glc, pelargonidin-3-glucoside]
Solution: 0,58 ± 0,22 µM/min

Values were extracted from paper PMC7142633.
